assay: Selectivity index, ratio of EC50 for human HEK cells to EC50 for wild type Trypanosoma brucei brucei Lister 427; assay type: toxicity, cell-based, HEK293; settings: HEK cells, read-out: Ratio EC50
Consider the following molecules; for each one, report its selectivity ratio.

The following molecules have reported results that may help.
| smilesCode | selectivity ratio |
| --- | --- |
| CC(C)C[P+](Cc1ccc(C(=O)c2ccccc2)cc1)(CC(C)C)CC(C)C.[Br-] | > 50 |
| C[P+](C)(Cc1ccc(CCCc2ccc(C[P+](C)(C)c3ccccc3)cc2)cc1)c1ccccc1.[Br-].[Br-] | > 230 |

Now for another entry.
In: Reported selectivity ratio, molecule "C[P+](C)(Cc1ccc(Cc2ccc(C[P+](C)(C)c3ccccc3)cc2)cc1)c1ccccc1.[Br-].[Br-]" : ____
Out: > 55
